- System: HCI-012 (organoid from a breast cancer xenograft)
- methodSummary: CTG-3D luminescence at 96 h relative to day-0 seeding control (ratio to day 0); higher = more growth / less cytotoxicity; PDxO 3D drug screen, 96 h, CTG-3D normalised to day-0 seeding control.
- condition: 100 µM; days in culture: 162
recordedMetric: CTG-3D luminescence at 96 h

| molecule | dataValue |
| --- | --- |
| C=CCn1c(=O)c2cnc(Nc3ccc(N4CCN(C)CC4)cc3)nc2n1-c1cccc(C(C)(C)O)n1 [adavosertib] | 0.0282 |
| C[C@]12CC[C@@H]3c4ccc(O)cc4C[C@@H](CCCCCCCCC[S+]([O-])CCCC(F)(F)C(F)(F)F)[C@H]3[C@@H]1CC[C@@H]2O (stereo partly specified) [fulvestrant] | 2.71 |
| NC(=O)Nc1cc(-c2cccc(F)c2)sc1C(=O)N[C@H]1CCCNC1 [AZD7762] | -5.12e-05 |
| CNC(=O)c1cccc(-c2ccc3c(N4CCOC[C@@H]4C)nc(N4CCOC[C@@H]4C)nc3n2)c1 [vistusertib] | 0.318 |
| Cc1cc(Nc2ncnc3ccc(NC4=NC(C)(C)CO4)cc23)ccc1Oc1ccn2ncnc2c1 [tucatinib] | 0.0168 |
| CCN(c1cc(C#CCN2CCOCC2)cc(C(=O)NCc2c(C)cc(C)[nH]c2=O)c1C)[C@H]1CC[C@H](N(C)CCOC)CC1 | 1.69 |
